# target: T1, p2S (p2 peptide biotinylated through its free cysteine) (human, also: biotinylated (maleimide PEO2-biotin) on one of the two Cys, which one not given here)
# T1 construct: The peptide has two cysteines; also called b-p2S
# T1 peptide: RPRYACCPGWKRT
# assayText: SPR (BIAcore-2000), IgG injected over immobilized p2S peptide;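 note: CM5 chip with immobilized peptide, IgG at 0.5–1000 nM in PBST, 3 min association and 3.5 min dissociation, reference-cell subtracted, rates fitted by 1:1 Langmuir model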
Where no end group is shown, it is not given here.
valueKind: koff (s⁻¹)

4F11.v3 IgG (antibody, name in Kabat numbering, V domains shown, IgG; Kabat numbering) VH: EVQLVESGGGLVQPGGSLRLSCAASGHTFTTYGMSWVRQAPGKGLEWVGWINTHSGVPTYADDFKGRFTISRDNSKNTVYLQMNSLRAEDTAVYYCARLGSSAVDYWGQGTLVTVSS VL: DIQMTQSPSSLSASVGDRVTITCKASQSVDYDGDSYMSWYQQKPGKAPKLLIYGASNLESGVPSRFSGSGSGTDFTLTISSLQPEDFATYYCQQNNEDPYTFGQGTKVEIKR    0.00292
4F11.v9 IgG (antibody, V domains shown, IgG; Kabat numbering) VH: EVQLVESGGGLVQPGGSLRLSCAASGHTRTTYGMSWVRQAPGKGLEWVGWINTHSGVPTYADDFKGRFTISRDNSKNTVYLQMNSLRAEDTAVYYCARLGSSAVDYWGQGTLVTVSS VL: DIQMTQSPSSLSASVGDRVTITCKASQSVDYDGDSYMSWYQQKPGKAPKLLIYGASNLESGVPSRFSGSGSGTDFTLTISSLQPEDFATYYCQQNNEDPYTFGQGTKVEIK    0.0023
4F11.v1 IgG (antibody, V domains shown, Expressed as IgG in 293 cells; also called 4F11-graft; direct CDR-graft) VH: EVQLVESGGGLVQPGGSLRLSCAASGHTFTTYGMSWVRQAPGKGLEWVGWINTHSGVPTYADDFKGRFTISRDNSKNTLYLQMNSLRAEDTAVYYCARLGSSAVDYWGQGTLVTVSS VL: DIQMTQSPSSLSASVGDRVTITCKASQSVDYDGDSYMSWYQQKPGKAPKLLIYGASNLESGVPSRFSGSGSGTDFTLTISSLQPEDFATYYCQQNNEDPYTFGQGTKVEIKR    0.00331
4F11.v12 IgG (antibody, V domains shown, IgG; Kabat numbering) VH: EVQLVESGGGLVQPGGSLRLSCAASGHTFTTYGMSWVRQAPGKGLEWVGWINIHSGVPTYADDFKGRFTISRDNSKNTVYLQMNSLRAEDTAVYYCARLGSSAVDYWGQGTLVTVSS VL: DIQMTQSPSSLSASVGDRVTITCKASQSVDYDGDSYMSWYQQKPGKAPKLLIYGASNLESGVPSRFSGSGSGTDFTLTISSLQPEDFATYYCQQNNEDPYTFGQGTKVEIK    0.00218
4F11.v10 IgG (antibody, V domains shown, IgG; Kabat numbering) VH: EVQLVESGGGLVQPGGSLRLSCAASGHTFTTYGMSWVRQAPGKGLEWVGWINTHSGVPTYADDFKGRFTISRDNSKNTVYLQMNSLRAEDTAVYYCARLGSYAVDYWGQGTLVTVSS VL: DIQMTQSPSSLSASVGDRVTITCKASQSVDYDGDSYMSWYQQKPGKAPKLLIYGASYLESGVPSRFSGSGSGTDFTLTISSLQPEDFATYYCQQNNEDPYTFGQGTKVEIK    0.00197
4F11.v5 IgG (antibody, V domains shown, IgG; Kabat numbering) VH: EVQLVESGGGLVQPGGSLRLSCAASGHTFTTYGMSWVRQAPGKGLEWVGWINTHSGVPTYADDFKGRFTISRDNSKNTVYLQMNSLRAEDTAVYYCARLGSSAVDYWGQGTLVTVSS VL: DIQMTQSPSSLSASVGDRVTITCKASQSVDYDGDSYVSWYQQKPGKAPKLLIYGASNLESGVPSRFSGSGSGTDFTLTISSLQPEDFATYYCQQNNEDPYTFGQGTKVEIK    0.00242
